# system_name: progesterone receptor (PR) (Homo sapiens, UniProt P06401)
# Construct: effect on alkaline phosphatase activity in T47D cells; endogenous in cells
# assay_comment: T47D cell alkaline phosphatase assay
# applied_conditions: T47D cells; antagonist mode, in the presence of 1 nM progesterone; first TABLE 2; read-out: Alk. Phos. IC50
Task for the reader: assign each of the following compounds its reported pIC50.
Give bare numbers, as −log10 of the molar value.

compound: Cn1c(C#N)ccc1-c1ccc2c(c1)C(c1cccs1)(c1cccs1)OCC(=O)N2
reported_measurement: 7.95

Reported pIC50 (progesterone receptor (PR) (Homo sapiens, UniProt P06401)) for entry CCC1(c2cccs2)OCC(=O)Nc2ccc(-c3ccc(C#N)n3C)cc21 (centres unmarked) is 7.84
